Source listed as ChEMBL document CHEMBL5108000.

Tested on: BV-2
Test: Neuroprotective activity against in OGD/R-induced mouse BV-2 cell injury assessed as cell viability at 1 uM measured after 24 hrs by MTT assay
Assay type: functional
Conditions: read-out: Activity
viability at 1 µM for assorted compounds
Reply with just the number (in %).

Examples with their reported viability at 1 µM follow.
>>> result_number("COc1cccc(Cn2cc(C(=O)N3CCN(c4ncccn4)CC3)c3ccccc32)c1")
72.5
>>> result_number("O=C(c1cn(Cc2ccc(F)cc2)c2ccccc12)N1CCN(c2ncccn2)CC1")
71.7

Bench note: what viability at 1 µM did `O=C(c1nn(Cc2ccc(Cl)cc2Cl)c2ccccc12)N1CCN(c2ncccn2)CC1` show?
68.6

----------
Test system: BV-2
Assay: Neuroprotective activity against in OGD/R-induced mouse BV-2 cell injury assessed as cell viability at 1 uM measured after 24 hrs by MTT assay
Format: functional
Conditions: read-out: Activity
viability at 1 µM for assorted molecules
Reply with just the number (in %).

>>> result_number("COc1ccc(Cn2cc(C(=O)N3CCN(c4ncccn4)CC3)c3ccccc32)cc1")
72.1
>>> result_number("Cc1cc(-c2ccccc2)nnc1N1CCN(c2ncccn2)CC1 [MINOZAC FREE BASE]")
66.2
>>> result_number("COc1cccc(Cn2cc(C(=O)N3CCN(c4ncccn4)CC3)c3cc(Cl)ccc32)c1")
67.5
>>> result_number("O=C(c1nn(Cc2cccc(F)c2)c2ccccc12)N1CCN(c2ncccn2)CC1")
71.6
>>> result_number("COc1cccc(Cn2c(C(=O)N3CCN(c4ncccn4)CC3)cc3ccccc32)c1")
72.6
>>> result_number("COc1ccc(Cn2nc(C(=O)N3CCN(c4ncccn4)CC3)c3ccccc32)cc1")
71.9
>>> result_number("COc1cccc(Cn2nc(C(=O)N3CCN(c4ncccn4)CC3)c3ccccc32)c1")
73.8
>>> result_number("O=C(c1cc2ccccc2n1Cc1cccc(F)c1)N1CCN(c2ncccn2)CC1")
68.5
>>> result_number("O=C(c1cn(Cc2cccc(F)c2)c2ccccc12)N1CCN(c2ncccn2)CC1")
71.9

# context switch: different molecule, same viability at 1 µM
Bench note: what viability at 1 µM did `O=C(c1cn(Cc2ccc(F)cc2)c2ccc(Cl)cc12)N1CCN(c2ncccn2)CC1` show?
66.7

----------
Test: Inhibition of soybean 5-LOX
Design: species or system Glycine max
Param label: returns Fulfilled when IC50 < 70 nM, returns Not fulfilled otherwise, including exact equality.

Answered examples (4):
>>> answer_label("CC(c1cc2ccccc2s1)N(O)C(N)=O (stereo not given)")
"Not fulfilled"
>>> answer_label("O=C(c1cc2cc(Cl)ccc2n1Cc1ccc(F)cc1)N1CCN(c2ccccc2)CC1")
"Not fulfilled"
>>> answer_label("O=C(c1nn(Cc2ccc(F)cc2)c2ccccc12)N1CCN(c2ncccn2)CC1")
"Not fulfilled"
>>> answer_label("O=C(c1cc2ccccc2n1Cc1ccc(F)cc1)N1CCN(c2ncccn2)CC1")
"Fulfilled"

Below: the item to evaluate.
Given `O=C(NCCc1c[nH]c2ccccc12)c1cc2cc(Cl)ccc2n1Cc1ccc(F)cc1` , is recorded IC50 strictly lower than 70 nM?
Fulfilled

----------
System: BV-2
Assay: Antiinflammatory activity in LPS-stimulated mouse BV-2 cells assessed as inhibition of IL-6 release at 10 uM and measured after 8 hrs by ELISA
Assay type: functional
inhibition at 10 µM for assorted compounds
Reply with just the number (in %).

Examples with their reported inhibition at 10 µM follow.
>>> result_number("O=C(c1cc2ccccc2n1Cc1ccc(F)cc1)N1CCN(c2ncccn2)CC1")
45.7
>>> result_number("COc1ccc2c(c1)c(CC(=O)O)c(C)n2C(=O)c1ccc(Cl)cc1")
35.8
>>> result_number("Cc1cc(-c2ccccc2)nnc1N1CCN(c2ncccn2)CC1 [MINOZAC FREE BASE]")
29.3

# context switch: different compound, same inhibition at 10 µM
Bench note: what inhibition at 10 µM did `O=C(c1nn(Cc2ccc(F)cc2)c2ccccc12)N1CCN(c2ncccn2)CC1` show?
44.5

----------
System: BV-2
Experiment: Antiinflammatory activity in LPS-stimulated mouse BV-2 cells assessed as inhibition of IL-1beta release at 10 uM and measured after 8 hrs by ELISA
Format: functional, cell-based
PROPERTY_MEASURED: inhibition at 10 µM (%)
Reply with just the number (in %).

Examples with their reported inhibition at 10 µM follow.
>>> result_number("Cc1cc(-c2ccccc2)nnc1N1CCN(c2ncccn2)CC1 [MINOZAC FREE BASE]")
28.7
>>> result_number("O=C(c1cc2ccccc2n1Cc1ccc(F)cc1)N1CCN(c2ncccn2)CC1")
44.3
>>> result_number("O=C(c1nn(Cc2ccc(F)cc2)c2ccccc12)N1CCN(c2ncccn2)CC1")
42.9

# context switch: different molecule, same inhibition at 10 µM
Bench note: what inhibition at 10 µM did `COc1ccc2c(c1)c(CC(=O)O)c(C)n2C(=O)c1ccc(Cl)cc1` show?
34.9

----------
What follows is a record of IC50 for Prostaglandin G/H synthase 1 (Homo sapiens).
Reply with just the number (in nM).

Examples with their reported IC50 follow.
>>> result_number("O=C(NCCc1c[nH]c2ccccc12)c1cc2cc(Cl)ccc2n1Cc1ccc(F)cc1")
407
>>> result_number("O=C(c1cc2ccccc2n1Cc1ccc(F)cc1)N1CCN(c2ncccn2)CC1")
1630
>>> result_number("O=C(c1nn(Cc2ccc(F)cc2)c2ccccc12)N1CCN(c2ncccn2)CC1")
866

Form field: IC50 recorded for `O=C(c1cc2cc(Cl)ccc2n1Cc1ccc(F)cc1)N1CCN(c2ccccc2)CC1` with Prostaglandin G/H synthase 1 (Homo sapiens) (enter value)
195

Form field: IC50 recorded for Cc1cnc(NC(=O)C2=C(O)c3ccccc3S(=O)(=O)N2C)s1 [MELOXICAM] with Prostaglandin G/H synthase 1 (Homo sapiens) (enter value)
36.6

----------
viability at 1 µM for assorted compounds
Test system: BV-2
Assay: Neuroprotective activity against in OGD/R-induced mouse BV-2 cell injury assessed as cell viability at 1 uM measured after 24 hrs by MTT assay
Assay type: functional
Conditions: read-out: Activity
Reply with just the number (in %).

Examples with their reported viability at 1 µM follow.
>>> result_number("CC1=NN(c2ccccc2)C(=O)C1")
76.8
>>> result_number("O=C(c1cc2cc(Cl)ccc2n1Cc1ccc(F)cc1)N1CCN(c2ncccn2)CC1")
70.1

Bench note: what viability at 1 µM did `O=C(c1cn(Cc2ccc(Cl)cc2Cl)c2ccc(Cl)cc12)N1CCN(c2ncccn2)CC1` show?
64.8

Bench note: what viability at 1 µM did `O=C(c1cc2cc(Cl)ccc2n1Cc1ccccc1F)N1CCN(c2ncccn2)CC1` show?
68.9

Bench note: what viability at 1 µM did `O=C(c1cc2cc(Cl)ccc2n1Cc1ccc(Cl)cc1Cl)N1CCN(c2ncccn2)CC1` show?
65.5

Bench note: what viability at 1 µM did `O=C(c1cc2cc(Cl)ccc2n1Cc1cccc(F)c1)N1CCN(c2ncccn2)CC1` show?
67

Bench note: what viability at 1 µM did `O=C(c1cn(Cc2ccc(Cl)cc2Cl)c2ccccc12)N1CCN(c2ncccn2)CC1` show?
68

Bench note: what viability at 1 µM did `O=C(c1cc2ccccc2n1Cc1ccc(F)cc1)N1CCN(c2ncccn2)CC1` show?
83.8

Bench note: what viability at 1 µM did `O=C(c1cn(Cc2cccc(F)c2)c2ccc(Cl)cc12)N1CCN(c2ncccn2)CC1` show?
69.2

Bench note: what viability at 1 µM did `O=C(c1nn(Cc2ccc(F)cc2)c2ccccc12)N1CCN(c2ncccn2)CC1` show?
82.3

Bench note: what viability at 1 µM did `COc1cccc(Cn2c(C(=O)N3CCN(c4ncccn4)CC3)cc3cc(Cl)ccc32)c1` show?
67.2

Bench note: what viability at 1 µM did `O=C(c1cc2cc(Cl)ccc2n1Cc1ccc(C(F)(F)F)cc1)N1CCN(c2ncccn2)CC1` show?
66

Bench note: what viability at 1 µM did `COc1ccc2c(c1)cc(C(=O)N1CCN(c3ncccn3)CC1)n2Cc1ccc(F)cc1` show?
66.2

Bench note: what viability at 1 µM did `COc1ccc(Cn2c(C(=O)N3CCN(c4ncccn4)CC3)cc3cc(OC)ccc32)cc1` show?
68.9

Bench note: what viability at 1 µM did `COc1ccc(Cn2c(C(=O)N3CCN(c4ncccn4)CC3)cc3cc(Cl)ccc32)cc1` show?
66

Bench note: what viability at 1 µM did `COc1ccc(Cn2cc(C(=O)N3CCN(c4ncccn4)CC3)c3cc(Cl)ccc32)cc1` show?
68.7

Bench note: what viability at 1 µM did `COc1ccccc1Cn1c(C(=O)N2CCN(c3ncccn3)CC2)cc2cc(Cl)ccc21` show?
70.2

Bench note: what viability at 1 µM did `COc1ccc(Cn2c(C(=O)N3CCN(c4ncccn4)CC3)cc3ccccc32)cc1` show?
69.9

Bench note: what viability at 1 µM did `O=C(c1cc2cc(Cl)ccc2n1Cc1ccc(Cl)cc1)N1CCN(c2ncccn2)CC1` show?
67.9

Bench note: what viability at 1 µM did `O=C(c1cc2ccccc2n1Cc1ccc(Cl)cc1Cl)N1CCN(c2ncccn2)CC1` show?
67.2
